- system: Gal(b1-4)GlcNAc(b1-3)Gal(b1-4)GlcNAc(b1-3)Gal(b1-4)GlcNAc(b1-3)Gal(b1-4)GlcNAc(b1-2)Man(a1-3)[Gal(b1-4)GlcNAc(b1-3)Gal(b1-4)GlcNAc(b1-3)Gal(b1-4)GlcNAc(b1-3)Gal(b1-4)GlcNAc(b1-2)Man(a1-6)]Man(b1-4)GlcNAc(b1-4)[Fuc(a1-6)]GlcNAc
- assay-explanation: glycan array binding signal (z-score within array); higher = stronger binding
- protocol-conditions: glycan notation: IUPAC condensed, linker removed
About 410 targets per protein were measured; listed, in parts, are those with the strongest signals and a random draw of the rest.
glycan array binding signal (z-score) values by entry
Output: the number by itself.

{"binder": "rCnSL-proB (Clitocybe nebularis) (protein) PTFSPIFALLAFLPFGTLASLLPQTQLVFRINPNLPGPNDVFVGYRGTNNVVGAIYERDGIKDTPMNNGADAELGPGSYITDDLFTAQIFASGSAGNNPGTTATVCKIYADGVQWRGAPKGYLPVLYFGNGQAAEQTRQTYLQGLDIPGTAIRFANLAKTPNQGPTAPRQMVVPSGGLQTLLKASCFPANHAALPQVLSYFNVRAALPPGWNIRTGPEFPNWTN", "glycan array binding signal (z-score)": 2.28}
{"binder": "Agalectin (Anopheles gambiae) (protein) MSNRPFTAKFPRYPENGDEVFIRGKLKDDAKSFSVNFCLPRPAQVAEHQTPPYIALHFKTIYDERDDTSRVVLNWKNLQWQQEEVLDNYWHVDRSQTFRVVFRLHEDCIKVFVNSVDHPPDYQFPVQLPLDQIESIELWDDVEHVEEISFRYDNGNSY", "glycan array binding signal (z-score)": 3.26}

# context switch: different binder, same glycan array binding signal (z-score)
The measured glycan array binding signal (z-score) associated with AAL (Agrocybe aegerita), Q6WY08 (protein) MQGVNIYNISAGTSVDLAAPVTTGDIVTFFSSALNLNAGAGNPNNTTLNLFAENGAYLLHIAFRLQENVIIFNSRQPDGPWLVEQRVSDVANQFAGIDGKAMVTVFDHGDKYQVVINEKTVIQYTKQISGLTLSLSYNATEETSIFSTVVEAVTYTGLALEHHHHHH reads -0.096
